Data origin: paper PMC4409337

Test system: Nucleoside hydrolase NH36 of L. (L.) donovani
Type: biochemical, Leishmania (L.) donovani
Details: catalytic efficiency, substrate of NH36
Procedure: BL21DE3 E.coli were transformed with the synthetic plasmid pET 28b encoding the gene of NH36 of Leishmania (L.) donovani (EMBL, Genbank and DDJB data bases, access number AY007193) with a His6tag at the C-terminal. Expression was induced with 0.5 mM IPTG and overnight incubation at 20°C. Purification of NH36 was performed on a column of Ni-NTA Superflow resin (Qiagen, USA) eluted by a stepwise imidazole gradient and monitored by SDS-polyacrylamide gel electrophoresis and protein assay. […]
readout-kind: k cat /K m (M⁻¹ s⁻¹)

1. Nc1ccn([C@@H]2O[C@H](CO)[C@@H](O)[C@H]2O)c(=O)n1 9300
2. O=c1ccn([C@@H]2O[C@H](CO)[C@@H](O)[C@H]2O)c(=O)[nH]1 16000
3. O=c1[nH]cnc2c1ncn2[C@@H]1O[C@H](CO)[C@@H](O)[C@H]1O 31800
4. Nc1nc2c(ncn2[C@@H]2O[C@H](CO)[C@@H](O)[C@H]2O)c(=O)[nH]1 1200
5. Nc1ncnc2c1ncn2[C@@H]1O[C@H](CO)[C@@H](O)[C@H]1O 53000

* * *

system: L. (L.) infantum chagasi promastigotes; assay: In vitro growth of promastigotes in FBS supplemented Schneider's insect medium; type: cell-based, Leishmania (L.) infantum chagasi; conditions: Leishmania infantum, read-out: IC50 on promastigote growth, daily addition, drugs added at 0, 24 and 48 h; after 48h
pIC50: −log10 of the molar value.
readout-kind: pIC50

compound	reported-value
O=c1[nH]cnc2c([C@@H]3N[C@H](CO)[C@@H](O)[C@H]3O)c[nH]c12 [IH]	5.17

* * *

Recorded measurements of EC50, one per entry
tested on: intracellular amastigotes of L. (L.) infantum chagasi; test: Replication of intracellular amastigotes in infected peritoneal macrophages (phagocytic index); format: cell-based, Leishmania (L.) infantum chagasi; conditions: Leishmania infantum, Peritoneal macrophage; drugs (0.5–10 μM) added at 0 h, incubation 24 h, linear interpolation; read-out: EC50 (CI 95%)
readout-kind: EC50 (µM)

molecule	system	reported-value
Nc1ncnc2c(C3N[C@H](CO)[C@@H](O)[C@H]3O)c[nH]c12 (some centres unmarked) [IA]	intracellular amastigotes of L. (L.) infantum chagasi	2.39
O=c1[nH]cnc2c(CNC(CO)CO)c[nH]c12 [SMIH]	intracellular amastigotes of L. (L.) infantum chagasi	7.1

* * *

test system: L. (L.) infantum chagasi promastigotes; assay: In vitro growth of promastigotes in FBS supplemented Schneider's insect medium; assay type: cell-based, Leishmania (L.) infantum chagasi; settings: Leishmania infantum, read-out: IC50 (CI 95%) on L. (L.) infantum chagasi promastigotes in vitro growth, single addition at 0 h, evaluated after 48 hours, 26°C

compound	IC50 [µM]
O=c1[nH]cnc2c([C@@H]3N[C@H](CO)[C@@H](O)[C@H]3O)c[nH]c12 [IH]	30.6

* * *

system: Nucleoside hydrolase NH36 of L. (L.) donovani; assay type: biochemical, Leishmania (L.) donovani; conditions: substrate of NH36; 25°C, 50 mM Hepes pH 7.4
Recorded measurements of log10 k cat, one per entry
readout-kind: log10 k cat (log10 of the value in s ^-1)

1. Nc1ccn([C@@H]2O[C@H](CO)[C@@H](O)[C@H]2O)c(=O)n1 1.12
2. Nc1ncnc2c1ncn2[C@@H]1O[C@H](CO)[C@@H](O)[C@H]1O 0.57
3. Nc1nc2c(ncn2[C@@H]2O[C@H](CO)[C@@H](O)[C@H]2O)c(=O)[nH]1 -0.33
4. O=c1ccn([C@@H]2O[C@H](CO)[C@@H](O)[C@H]2O)c(=O)[nH]1 1.54
5. O=c1[nH]cnc2c1ncn2[C@@H]1O[C@H](CO)[C@@H](O)[C@H]1O 1.03
